# study-target: T1, recombinant human CTGF-Fc protein (Creative Biomart) (human)
# T1 construct: Bought; also called human CTGF with a human IgG1 Fc Tag
# T1 sequence (chain, as listed by the source limits assumed): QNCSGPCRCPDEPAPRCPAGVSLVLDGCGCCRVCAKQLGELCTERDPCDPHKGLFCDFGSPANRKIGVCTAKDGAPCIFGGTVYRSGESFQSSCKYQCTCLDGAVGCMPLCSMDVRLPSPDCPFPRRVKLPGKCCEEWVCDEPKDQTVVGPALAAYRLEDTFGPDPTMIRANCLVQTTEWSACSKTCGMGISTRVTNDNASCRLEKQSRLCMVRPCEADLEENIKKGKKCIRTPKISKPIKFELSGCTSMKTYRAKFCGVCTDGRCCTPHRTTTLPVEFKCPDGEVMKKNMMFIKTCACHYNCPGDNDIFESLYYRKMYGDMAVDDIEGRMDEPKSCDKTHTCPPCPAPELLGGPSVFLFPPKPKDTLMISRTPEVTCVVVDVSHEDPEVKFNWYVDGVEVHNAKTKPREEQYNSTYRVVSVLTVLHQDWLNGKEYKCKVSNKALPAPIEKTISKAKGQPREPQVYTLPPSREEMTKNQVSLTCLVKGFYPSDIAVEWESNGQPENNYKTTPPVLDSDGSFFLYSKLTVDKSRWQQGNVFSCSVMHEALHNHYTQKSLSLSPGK
# assay-protocol: SPR (Biacore)
For each of the binders below, state its koff.
Answers are plain numbers, in s⁻¹.

For orientation, consider the following solved cases.
>  <binder>
lipocalin mutein of SEQ ID NO: 29 (designed binder, Parent hNGAL mutein; also called hNGAL mutein) QDSTSDLIPAPPLSKVPLQQNFQDNQFHGKWYVVGWAGNIKLREDKDPFKMSATIYELKEDKSYNVTEVVFEQKKCHYIIKTFVPGSQPGEFTLGDIKSPPGETSSLVRVVSTNYNQHAMVFFKKVFQNREFFWITLYGRTKELTSELKENFIRFSKSLGLPENHIVFPVPIDQCIDGSAWSHPQFEK

>  <experimental-readout>
koff

>  <numeric-value>
0.00112

$$$$
>  <binder>
lipocalin mutein of SEQ ID NO: 3 (designed binder, Parent hNGAL mutein; also called hNGAL mutein) QDSTSDLIPAPPLSKVPLQQNFQDNQFHGKWYVVGRAGNNRLREDKDPPKMWATIYELKEDKSYNVTHVHFMTKKCRYIIDTFVPGSQPGEFTLGAIKSGPGMTSPLVRIVSTNYNQHAMVFFKWVNQNREWFTITLYGRTKELTSELKENFIRFSKSLGLPENHIVFPVPIDQCIDGSAWSHPQFEK

>  <experimental-readout>
koff

>  <numeric-value>
0.00749

$$$$
>  <binder>
lipocalin mutein of SEQ ID NO: 22 (designed binder, also called hNGAL mutein; not shown: C-terminal His-tag) QDSTSDLIPAPPLSKVPLQQNFQDNQFQGKWYVVGIAGNAILRVDKQPAKMFATIYELKEDKSYDVTSVRFEAKSCVYTIKTFVPGSQPGEFTAGNIKSAPGQTSTLVRVVSTNYNQHAMVFFKHVSQNREIFVITLYGRTKELTSELKENFIRFSKSLGLPENHIVFPVPIDQCIDG

>  <experimental-readout>
koff

>  <numeric-value>
8.05e-06

$$$$
>  <binder>
lipocalin mutein of SEQ ID NO: 19 (designed binder, also called hNGAL mutein; not shown: C-terminal His-tag) QDSTSDLIPAPPLSKVPLQQNFQDNQFQGKWYVVGLAGNAILREDKQPAKMFATIYELKEDKSYDVTSVRFEAKSCSYTIKTFVPGSQPGEFTAGNIKSAPGQTSTLVRVVSTNYNQHAMVFHKAVSQNRESFVITLYGRTKELTSELKENFIRFSKSLGLPENHIVFPVPIDQCIDG

>  <experimental-readout>
koff

>  <numeric-value>
5.2e-05

$$$$
>  <binder>
lipocalin mutein of SEQ ID NO: 12 (designed binder, also called hNGAL mutein; not shown: C-terminal His-tag) QDSTSDLIPAPPLSKVPLQQNFQDNQFQGKWYVVGLAGNAILREDKYPAKMFATIYELKEDKSYDVTSVRFENKSCVYTIKTFVPGSQPGEFTTGNIKSAPGQTSTLVRVVSTNYNQHAMVFFKHVSQNREFFVITLYGRTKELTSELKENFIRFSKSLGLPENHIVFPVPIDQCIDG

>  <experimental-readout>
koff

>  <numeric-value>
0.000133

$$$$

Next binder, koff to be filled in.
# koff (binder: lipocalin mutein of SEQ ID NO: 24 (designed binder, also called hNGAL mutein) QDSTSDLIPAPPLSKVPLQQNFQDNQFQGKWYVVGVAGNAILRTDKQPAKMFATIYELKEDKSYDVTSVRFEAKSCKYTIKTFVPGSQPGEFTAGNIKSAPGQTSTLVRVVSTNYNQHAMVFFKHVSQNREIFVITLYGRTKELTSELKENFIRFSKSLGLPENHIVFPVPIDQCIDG ) is 1.41e-05
